Task for the reader: assign each of the following compounds its reported activity at 300 g/ha.
System: Chickweed
Experiment: Preemergence herbicidal activity, chickweed
Type: in vivo
Details: Stellaria media, pre-emergence, 0.3 kg/ha, after 17-21 days, read-out: Preemergence herbicidal activity (% control), Chickweed
Numbers only here, please. The scale is %.

Q) Please report the measured activity at 300 g/ha for `Cn1c(C(F)(F)F)cc(=O)n(-c2ccc(OCc3cccc(Cl)c3)cc2)c1=O` tested on Chickweed.
A) 0

Q) Please report the measured activity at 300 g/ha for `Cc1cc(OCc2ccccc2)ccc1-n1c(=O)cc(C(F)(F)F)n(C)c1=O` tested on Chickweed.
A) 0

Q) Please report the measured activity at 300 g/ha for `Cn1c(C(F)(F)F)cc(=O)n(-c2ccc(OCc3ccc(F)cc3)cc2)c1=O` tested on Chickweed.
A) 100

Q) Please report the measured activity at 300 g/ha for `Cn1c(C(F)(F)F)cc(=O)n(-c2ccc(OCc3ccccc3)cc2F)c1=O` tested on Chickweed.
A) 90

Q) Please report the measured activity at 300 g/ha for `COc1ccc(COc2ccc(-n3c(=O)cc(C(F)(F)F)n(C)c3=O)cc2)cc1` tested on Chickweed.
A) 20

Q) Please report the measured activity at 300 g/ha for `Cn1c(C(F)(F)F)cc(=O)n(-c2ccc(OCc3c(Cl)cccc3Cl)cc2)c1=O` tested on Chickweed.
A) 0

Q) Please report the measured activity at 300 g/ha for `Cn1c(C(F)(F)F)cc(=O)n(-c2ccc(OCc3ccccc3Cl)cc2)c1=O` tested on Chickweed.
A) 0

Q) Please report the measured activity at 300 g/ha for `Cn1c(C(F)(F)F)cc(=O)n(-c2ccc(OCc3ccccc3)cc2)c1=O` tested on Chickweed.
A) 90

###

Task for the reader: assign each of the following compounds its reported activity at 300 g/ha.
System: Cocklebur
Test: Postemergence herbicidal activity, cocklebur
Type: in vivo, Xanthium pensylvanicum
Details: Xanthium strumarium, post-emergence, 0.3 kg/ha, after 17-21 days, read-out: Postemergence herbicidal activity (% control), Cocklebur
Numbers only here, please. The scale is %.

Q) Give the reported value of activity at 300 g/ha for this record: `Cn1c(C(F)(F)F)cc(=O)n(-c2ccc(OCc3cccc(Cl)c3Cl)cc2)c1=O`
A) 35

Q) Give the reported value of activity at 300 g/ha for this record: `Cn1c(C(F)(F)F)cc(=O)n(-c2ccc(OCc3ccc(Cl)cc3Cl)cc2)c1=O`
A) 60

Q) Give the reported value of activity at 300 g/ha for this record: `Cn1c(C(F)(F)F)cc(=O)n(-c2ccc(OCc3ccc(F)cc3)cc2)c1=O`
A) 100

Q) Give the reported value of activity at 300 g/ha for this record: `Cn1c(C(F)(F)F)cc(=O)n(-c2ccc(OCc3ccc(C(F)(F)F)cc3)cc2)c1=O`
A) 40

Q) Give the reported value of activity at 300 g/ha for this record: `Cn1c(C(F)(F)F)cc(=O)n(-c2ccc(OCc3ccc(F)cc3)cc2F)c1=O`
A) 100

Q) Give the reported value of activity at 300 g/ha for this record: `Cc1cc(OCc2ccc(Cl)cc2)ccc1-n1c(=O)cc(C(F)(F)F)n(C)c1=O`
A) 90

Q) Give the reported value of activity at 300 g/ha for this record: `Cn1c(C(F)(F)F)cc(=O)n(-c2ccc(OCc3c(Cl)cccc3Cl)cc2)c1=O`
A) 0

Q) Give the reported value of activity at 300 g/ha for this record: `Cn1c(C(F)(F)F)cc(=O)n(-c2ccc(OCc3ccc(Cl)c(Cl)c3)cc2)c1=O`
A) 100

Q) Give the reported value of activity at 300 g/ha for this record: `COc1ccc(COc2ccc(-n3c(=O)cc(C(F)(F)F)n(C)c3=O)cc2)cc1`
A) 50

Q) Give the reported value of activity at 300 g/ha for this record: `COc1ccccc1COc1ccc(-n2c(=O)cc(C(F)(F)F)n(C)c2=O)cc1`
A) 100

Q) Give the reported value of activity at 300 g/ha for this record: `Cn1c(C(F)(F)F)cc(=O)n(-c2ccc(OCc3cc(Cl)cc(Cl)c3)cc2)c1=O`
A) 0

Q) Give the reported value of activity at 300 g/ha for this record: `Cn1c(C(F)(F)F)cc(=O)n(-c2ccc(OCc3cccc(Cl)c3)cc2)c1=O`
A) 100

Q) Give the reported value of activity at 300 g/ha for this record: `Cn1c(C(F)(F)F)cc(=O)n(-c2ccc(OCc3ccccc3Cl)cc2)c1=O`
A) 30

Q) Give the reported value of activity at 300 g/ha for this record: `COc1cccc(COc2ccc(-n3c(=O)cc(C(F)(F)F)n(C)c3=O)cc2)c1`
A) 100

Q) Give the reported value of activity at 300 g/ha for this record: `Cc1cc(OCc2ccccc2)ccc1-n1c(=O)cc(C(F)(F)F)n(C)c1=O`
A) 0

Q) Give the reported value of activity at 300 g/ha for this record: `Cn1c(C(F)(F)F)cc(=O)n(-c2ccc(OCc3ccc(Cl)cc3)cc2F)c1=O`
A) 100

Q) Give the reported value of activity at 300 g/ha for this record: `Cn1c(C(F)(F)F)cc(=O)n(-c2ccc(OCc3ccc(Cl)cc3)cc2)c1=O`
A) 100

Q) Give the reported value of activity at 300 g/ha for this record: `Cn1c(C(F)(F)F)cc(=O)n(-c2ccc(OCc3ccccc3)cc2F)c1=O`
A) 100

Q) Give the reported value of activity at 300 g/ha for this record: `Cn1c(C(F)(F)F)cc(=O)n(-c2ccc(OCc3ccccc3)cc2)c1=O`
A) 80
